Could you please report measured GI50 for the items listed next?
test system: IGROV1 ovarian; assay: NCI tumour cell line growth inhibition, 48 h

Below, each entry is followed by its recorded GI50 result.
- CCC1(N)C(=O)OCc2c1cc1n(c2=O)Cc2cc3ccccc3nc2-1 (centres undefined): 15.6 µM
- COc1c(N2CCN(CN3C(=O)C(=O)c4ccccc43)C(C)C2)c(F)cc2c(=O)c(C(=O)O)cn(C3CC3)c12 (centres undefined): > 100 µM

Hi team, please reply with GI50 for each item in this list.
1. CCN(CC)CCOc1ccc(Cc2ccccc2)cc1
2. COC(=O)[C@H](Cc1cn(C)cn1)NC(=O)[C@@H](NC(=O)Nc1cc(C(F)(F)F)cc(C(F)(F)F)c1)C(C)(C)C
3. COCC(=O)NC/C=C/c1ccc2ncnc(Nc3ccc(Oc4ccc(C)nc4)c(C)c3)c2c1
4. C=C(C)[C@@H]1CC[C@]2(CN)CC[C@]3(C)[C@H](CC[C@@H]4[C@@]5(C)CCC(N)[C@@](C)(CO)[C@@H]5CC[C@]43C)[C@@H]12 (some centres undefined)
5. COc1ccc2c(c1)c(-c1ccc(-c3cn(C)c4ccc(OC)cc34)o1)cn2C

24 µM
> 10 µM
15.9 µM
1.92 µM
29.6 µM

The following compounds each have a reported value; give each one's GI50.
1. C[C@@H]1OC(=O)NN=C1c1ccc(-c2ccc(F)cc2)c(C(F)(F)F)c1
2. CCCc1n(Cc2ccc3ccccc3n2)cc[n+]1Cc1ccc2ccccc2c1

14.2 µM
0.807 µM
